# viability annotations
Test: HUVEC growth inhibition – cell-based, human, primary screen (AID 575);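 further: 100% = median of untreated cell wells with 0.1% DMSO on each plate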
Settings: HUVEC proliferation, CellTiter-Glo luminescence, 72 h; at 10 µM; stronger effect = lower value
ATTRIBUTE MEASURED: viability (%)

> print(dat)
                                    molecule  attribute.measured  recorded.value
 1  Cc1cn([C@H]2C[C@H](N=[N+]=[N-])[C@@H](CO)O2)c(=O)[nH]c1=O           viability             104
 2  CCOC(=O)N1CCN(S(=O)(=O)c2cc(Cl)ccc2Cl)CC1           viability            90.7
 3        Cc1ccc2[nH]c3c(c2c1)CCc1cn[nH]c1-3           viability            66.4
 4  NC(=O)COC(=O)c1ccc(S(=O)(=O)N2CCCCCC2)cc1           viability            92.8
 5                       CCC1(CC)NC(=O)NC1=O           viability              85
 6           COc1cc(OC)c(NC(=O)c2ccco2)cc1Cl           viability            92.1
 7                 O=C(O)CCNc1ccc2c(c1)OCCO2           viability             109
 8              COC(=O)COc1nc(C)c(Br)c(OC)n1           viability             105
 9    Cc1ccc(CCC(=O)Nc2ccc(S(N)(=O)=O)cc2)o1           viability            98.4
10  CCCC(=O)O[C@]1(C(=O)COC(C)=O)CC[C@H]2[C@@H]3C[C@H](F)C4=CC(=O)C=C[C@]4(C)[C@@]3(F)[C@@H](O)C[C@@]21C           viability            96.9
11            Cn1c([N+](=O)[O-])cnc1COC(N)=O           viability             102
12  CSCCC(NC(=O)c1ccco1)C(=O)O (stereo not drawn)           viability             112
13  Cc1cccc(-n2c(Cc3cc(=O)[nH]c(=O)[nH]3)nnc2SCC(=O)NCc2ccco2)c1           viability             108
14     O=S(=O)(Nc1ccccn1)c1ccc(Oc2ccccc2)cc1           viability            87.8
15  CN(CCc1ccccn1)C(=O)CCNC(=O)Cn1cnc2ccccc2c1=O           viability            88.9
16                     Cc1nc2cc(Cl)ccc2n1CCO           viability             102
17         Cc1ccccc1-n1c(=O)c2ccccc2n2nnnc12           viability             101
18  Cn1c(=O)c2c(nc(Br)n2CCSc2ncccn2)n(C)c1=O           viability             106
19                  Nc1nnc(C(=O)c2ccccc2N)s1           viability             102
20  COc1ccc(CNc2nc(NCc3ccc(OC)cc3)n(S(C)(=O)=O)n2)cc1           viability            92.6
21      Cc1cc(C(=O)NCc2cccnc2)n(-c2ccccc2)n1           viability             102
22  Cc1cccc(N2C(=O)CC(N3CCN(C(=O)c4ccccc4)CC3)C2=O)c1 (stereo not drawn)           viability            90.8
23            CCn1nnc(NC(=O)c2cc3ccccc3o2)n1           viability            97.2
24         O=C(c1ccccc1Br)N1CCN(c2ccccc2)CC1           viability            93.6
25    Cc1cc(C(F)F)n2ncc(C(=O)NC3CCCCCC3)c2n1           viability            78.1
26     c1ccc(-c2nnc(-c3ccco3)n2-c2ccccc2)cc1           viability              87
27                  O=C(CCSc1ccccc1)N1CCOCC1           viability            96.7
28  Cc1nnc(SCC2=C(C(=O)O)N3C(=O)[C@@H](NC(=O)Cn4cnnn4)[C@H]3SC2)s1           viability             105
29  O=C(C1CCC(N2C(=O)C3CC=CCC3C2=O)CC1)N1CCCCC1 (stereo not drawn)           viability            96.3
30  Cc1ccc(S(=O)(=O)NCCC(=O)OCn2nnc3ccccc3c2=O)cc1           viability            83.8
31  Cn1c(=O)c2c(nc(CN3CCOCC3)n2CC(O)CO)n(C)c1=O (stereo not drawn)           viability             104
32  COc1ccc(-n2c(COc3ccccc3)nnc2SCc2ccc(C#N)cc2)cc1           viability              81
33  COC(=O)N1CC(c2ccccc2)CC1=O (stereo not drawn)           viability             101
34  COc1ccc(CCn2c(C)cc(C(=O)CSc3nnnn3C)c2C)cc1           viability            81.7
35           CCOc1ccc(Cl)cc1S(=O)(=O)N1CCCC1           viability             101
36  CCOC(=O)C1CCN(C(=O)C2CCN(S(=O)(=O)c3cc(Cl)ccc3Cl)CC2)CC1           viability             115
37  COc1ccccc1NC(=O)C1=C(C)Nc2nc(CCCO)nn2C1c1cccnc1 (stereo not drawn)           viability            95.7
38  CCOc1ccc(C(=O)N2CCN(C(=O)c3ccco3)CC2)cc1OCC           viability            85.8
39  CCOc1ccc2[nH]c(=O)c(C(c3nnnn3Cc3ccco3)N3CCC(C)CC3)cc2c1 (stereo not drawn)           viability            82.3
40   O=C(CCNS(=O)(=O)c1ccc(Cl)cc1)NCc1ccccn1           viability            81.4
41  CCC1C(=O)N=C(SCC(=O)Nc2cccc3ccccc23)NC1=O (stereo not drawn)           viability             106
42                 c1ccc2c(CC3=NCCN3)cccc2c1           viability            91.7
43           CN(C)C(=O)c1ccc(COc2ccccc2Br)o1           viability            88.5
44   c1ccc(-c2nn3c(Cn4nnc5ccccc54)nnc3s2)nc1           viability            75.6
45        COc1ccc(OCC(=O)Nc2cccc3ncccc23)cc1           viability             104
46             O=C(O)c1cc(-c2ccccc2Cl)n[nH]1           viability            95.6
47         CC1(C)CC(=O)c2cnc(NCc3ccco3)nc2C1           viability             114
48                 COC(=O)Nc1ccc(NC(C)=O)cc1           viability             103

Data credit: PubChem BioAssay
